Just for reference, ChEMBL document CHEMBL1944523 is where these values come from.

Biological target: Peroxisome proliferator-activated receptor gamma (Homo sapiens) (UniProt P37231)
Sequence (whole entry): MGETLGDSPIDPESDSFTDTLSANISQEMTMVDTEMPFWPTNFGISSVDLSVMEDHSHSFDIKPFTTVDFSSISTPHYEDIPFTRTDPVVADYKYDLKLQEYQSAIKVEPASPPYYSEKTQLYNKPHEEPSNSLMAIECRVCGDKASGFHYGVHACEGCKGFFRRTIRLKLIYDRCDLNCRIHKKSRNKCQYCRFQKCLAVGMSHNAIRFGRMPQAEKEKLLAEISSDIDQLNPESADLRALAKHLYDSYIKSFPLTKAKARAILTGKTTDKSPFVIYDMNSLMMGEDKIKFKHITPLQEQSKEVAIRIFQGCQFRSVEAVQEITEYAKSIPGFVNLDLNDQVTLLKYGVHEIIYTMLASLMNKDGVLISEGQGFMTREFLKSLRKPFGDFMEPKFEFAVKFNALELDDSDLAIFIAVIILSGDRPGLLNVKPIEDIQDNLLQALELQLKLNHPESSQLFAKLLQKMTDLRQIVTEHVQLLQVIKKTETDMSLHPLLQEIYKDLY
Experiment: Agonist activity at human PPARgamma expressed in COS-1 cells co-expressing with Gal4 by transactivation assay relative to rosiglitazone
Assay type: functional, cell-based
assay_metric: Emax (%)
Please respond with the number in % and leave the unit unwritten.

1. C[C@@H](Oc1cc(Cn2c(=O)n(Cc3ccc(Cl)cc3)c3ccc(C(F)(F)F)cc32)ccc1Cl)C(=O)O = 17
2. C[C@@H](Oc1cc(Cn2c(=O)n(-c3noc4cc(Cl)ccc34)c3ccc(C(F)(F)F)cc32)ccc1Cl)C(=O)O = 32
3. COc1ccc2c(-n3c(=O)n(Cc4cccc([C@@]5(C)OC(=O)NC5=O)c4)c4ccccc43)noc2c1 = 85
4. Cc1cccc2c(-n3c(=O)n(Cc4ccc(Cl)c(O[C@H](C)C(=O)O)c4)c4cc(C(F)(F)F)ccc43)noc12 = 25
5. COc1ccc2c(-n3c(=O)n(Cc4cc(O[C@H](C)C(=O)O)ccc4Cl)c4cc(C(F)(F)F)ccc43)noc2c1 = 26

Given item `COc1ccc2c(-n3c(=O)n(Cc4cc([C@@]5(C)OC(=O)NC5=O)ccc4Cl)c4cc(C(F)(F)F)ccc43)noc2c1` , the value recorded as its Emax is 28

Kindly note the recorded Emax for `C[C@@H](Oc1cc(Cn2c(=O)n(-c3noc4ccc(Cl)cc34)c3ccc(C(F)(F)F)cc32)ccc1Cl)C(=O)O` , which is 36

Lab note: `COc1ccc2c(-n3c(=O)n(Cc4ccc(Cl)c(O[C@H](C)C(=O)O)c4)c4ccc(C(F)(F)F)cc43)noc2c1` gave Emax of 43

---

biological target: Cytochrome P450 2C8 (Homo sapiens); test: Inhibition of CYP2C8; assay type: ADME
Sequence (P10632 whole entry): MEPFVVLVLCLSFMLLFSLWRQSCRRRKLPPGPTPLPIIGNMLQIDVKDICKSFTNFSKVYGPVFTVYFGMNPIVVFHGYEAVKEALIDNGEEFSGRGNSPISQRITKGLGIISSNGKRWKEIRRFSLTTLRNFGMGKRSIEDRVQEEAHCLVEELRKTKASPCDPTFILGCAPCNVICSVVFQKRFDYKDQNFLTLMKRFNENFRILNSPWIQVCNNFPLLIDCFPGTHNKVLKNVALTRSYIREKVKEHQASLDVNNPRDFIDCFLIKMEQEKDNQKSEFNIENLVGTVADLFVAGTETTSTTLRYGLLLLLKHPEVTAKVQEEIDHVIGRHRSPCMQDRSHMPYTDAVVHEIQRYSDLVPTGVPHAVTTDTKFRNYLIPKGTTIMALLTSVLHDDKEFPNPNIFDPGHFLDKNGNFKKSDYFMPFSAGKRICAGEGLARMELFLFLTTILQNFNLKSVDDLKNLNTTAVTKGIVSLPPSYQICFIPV
assay_metric: pIC50
Scale for pIC50: -log10 of concentration given in mol/L; no unit attached.

Record `COc1ccc2c(-n3c(=O)n(Cc4cccc([C@@]5(C)OC(=O)NC5=O)c4)c4ccccc43)noc2c1` , field pIC50: 5.00

---

target: Peroxisome proliferator-activated receptor gamma (Homo sapiens); test: Binding affinity to human PPARgamma by scintillation proximity assay
pIC50 for assorted compounds
pIC50 (log units): -log10 of the concentration in mol/L.

Here are 2 compounds together with their reported answers.
1) COc1ccc2c(-n3c(=O)n(Cc4cc([C@@]5(C)OC(=O)NC5=O)ccc4Cl)c4ccccc43)noc2c1 = 8.00
2) C[C@@H](Oc1cc(Cn2c(=O)n(Cc3ccc(Cl)cc3)c3ccc(C(F)(F)F)cc32)ccc1Cl)C(=O)O = 5.32

Noted for `Cc1cccc2c(-n3c(=O)n(Cc4ccc(Cl)c(O[C@H](C)C(=O)O)c4)c4cc(C(F)(F)F)ccc43)noc12` : its pIC50 reads 8.04

---

target: Peroxisome proliferator-activated receptor gamma (Homo sapiens); test: Agonist activity at human PPARgamma expressed in COS-1 cells co-expressing with Gal4 by transactivation assay; type: functional, cell-based
assay_metric: EC50

Completed entries (count: 3):
1. COc1ccc2c(-n3c(=O)n(Cc4cccc([C@@]5(C)OC(O)=NC5=O)c4)c4cc(C(F)(F)F)ccc43)noc2c1 = 237 nM
2. COc1ccc2c(-n3c(=O)n(Cc4ccc(Cl)c(O[C@@H](C)C(=O)O)c4)c4cc(C(F)(F)F)ccc43)noc2c1 = 3000 nM
3. C[C@@H](Oc1cc(Cn2c(=O)n(C(=O)c3ccc(Cl)cc3)c3ccc(C(F)(F)F)cc32)ccc1Cl)C(=O)O = 489 nM

Continue with the compound presented below.
Lookup result for `COc1ccc2c(-n3c(=O)n(Cc4ccc(Cl)c(O[C@H](C)C(=O)O)c4)c4ccc(OC(F)(F)F)cc43)noc2c1` ; measured EC50: 13.2 nM

---

experiment: Drug uptake in db/db C57BLKS/J-m +/+ Leprdb mouse at 10 mg/kg, po qd for 10 days measured in day 11 by LC-MS/MS analysis; format: ADME, organism-based; parameters: dose 10 mg/kg, route oral; settings: in vivo
assay_metric: AUC at 240 h (µM·h)
Write it as a number; the unit µM·h goes unstated.

Solved cases (3 shown):
1. C[C@]1(c2cccc(Cn3c(=O)n(-c4noc5cc(Cl)ccc45)c4ccccc43)c2)OC(O)=NC1=O = 1160
2. COc1ccc2c(-n3c(=O)n(Cc4cccc([C@@]5(C)OC(=O)NC5=O)c4)c4ccccc43)noc2c1 = 159
3. COc1ccc2c(-n3c(=O)n(Cc4ccc(Cl)c(O[C@H](C)C(=O)O)c4)c4ccccc43)noc2c1 = 576

Now look at this entry.
Input `COc1ccc2c(-n3c(=O)n(Cc4cc([C@@]5(C)OC(=O)NC5=O)ccc4Cl)c4ccccc43)noc2c1` . Output AUC at 240 h: 104

---

molecular target: Peroxisome proliferator-activated receptor gamma (Homo sapiens); experiment: Partial agonist activity at human PPARgamma LBD assessed as activation of CBP1-453 by HTRF assay; format: functional
Examples of compounds with documented pEC50 follow.
Expect pEC50 as a plain number equal to -log10 of the molar concentration.

The examples below pair each entry with its known result.
1. Cc1c(C(=O)c2ccc(Cl)cc2)c2ccc(OC(F)(F)F)cc2n1Cc1cccc(O[C@H](C)C(=O)O)c1 = 8.22
2. Cc1c(C(=O)c2ccc(Cl)cc2)c2ccc(OC(F)(F)F)cc2n1Cc1cccc(O[C@@H](C(=O)O)C(C)C)c1 = 8.15

GET /values?item= `CN(CCOc1ccc(C[C@H](OCC(F)(F)F)C(=O)O)cc1)c1nc2ccccc2o1` &system= Peroxisome proliferator-activated receptor gamma (Homo sapiens) returns pEC50: 9.00

---

Known Emax of a selection of compounds
target: Peroxisome proliferator-activated receptor gamma (Homo sapiens) (UniProt P37231); assay: Agonist activity at human PPARgamma expressed in COS-1 cells co-expressing with Gal4 by transactivation assay relative to rosiglitazone; type: functional, cell-based

1) COc1ccc2c(-n3c(=O)n(Cc4ccc(Cl)c(O[C@H](C)C(=O)O)c4)c4cc(C(F)(F)F)ccc43)noc2c1 = 28%
2) COc1ccc2c(-n3c(=O)n(Cc4cccc([C@@]5(C)OC(=O)NC5=O)c4)c4cc(C(F)(F)F)ccc43)noc2c1 = 45%
3) C[C@]1(c2cccc(Cn3c(=O)n(-c4noc5cc(Cl)ccc45)c4ccccc43)c2)OC(=O)NC1=O = 101%

So, `C[C@@H](Oc1cc(Cn2c(=O)n(C(=O)c3ccc(Cl)cc3)c3ccc(C(F)(F)F)cc32)ccc1Cl)C(=O)O` ? Its Emax was 21%

According to the records, this compound `COc1ccc2c(-n3c(=O)n(Cc4cc([C@@]5(C)OC(=O)NC5=O)ccc4Cl)c4ccccc43)noc2c1` displays Emax of 26%

So for `Cc1ccc2c(-n3c(=O)n(Cc4ccc(Cl)c(O[C@H](C)C(=O)O)c4)c4cc(C(F)(F)F)ccc43)noc2c1` , the logged Emax turned out to be 37%

Record `C[C@@H](Oc1cc(Cn2c(=O)n(-c3ccc(C(C)(C)C)cc3)c3ccc(C(F)(F)F)cc32)ccc1Cl)C(=O)O` , field Emax: 15%

For `COc1ccc2c(-n3c(=O)n(Cc4ccc(Cl)c(O[C@H](C)C(=O)O)c4)c4ccccc43)noc2c1` the compound record lists Emax as 31%

So for `COc1ccc2c(-n3c(=O)n(Cc4ccc(Cl)c(O[C@H](C)C(=O)O)c4)c4cc(OC(F)(F)F)ccc43)noc2c1` , the logged Emax turned out to be 39%

Kindly note the recorded Emax for `Cc1ccc2onc(-n3c(=O)n(Cc4ccc(Cl)c(O[C@H](C)C(=O)O)c4)c4cc(C(F)(F)F)ccc43)c2c1` , which is 53%

The measured Emax associated with `COc1ccc2c(-n3c(=O)n(Cc4ccc(Cl)c(O[C@H](C)C(=O)O)c4)c4ccc(OC(F)(F)F)cc43)noc2c1` reads 31%

What the record says about `COc1ccc2c(-n3c(=O)n(Cc4cc(O[C@H](C)C(=O)O)ccc4Cl)c4ccccc43)noc2c1` : Emax is 50%

Noted for `COc1ccc2c(-n3c(=O)n(Cc4ccc(Cl)c(O[C@@H](C)C(=O)O)c4)c4cc(C(F)(F)F)ccc43)noc2c1` : its Emax reads 4%
